System: NCI-H226 lung
ASSAY_INFO: NCI-60 one-dose screen, 48 h (100 = growth as untreated, 0 = no growth, -100 = all killed)
REPORTED_CONDITIONS: 10 µM
About 83,000 compounds went through this panel and 20% of them were active in at least one assay; those are over-represented in the sample as a whole.
// bucketize growth: b0 = under 10%, b1 = from 10% up to 60%, b2 = 60% and over

# COMPOUND, CAT
rows = [
    ("Cc1ccc(CSc2nc(-c3ccc(F)cc3)c(C#N)c(=O)[nH]2)cc1", "b2"),
    ("Nc1nc(-c2ccccc2)cs1", "b2"),
    ("COC1=C[C@@]23CCC(=O)N2CCc2cc4c(cc2[C@H]3[C@H]1OC(=O)C(C)(C)O)OCO4", "b2"),
    ("Nc1nc(Nc2ccc(Cl)cc2)nn1Cc1cccc(Br)c1", "b1"),
    ("COc1ccc(/C(CSc2nnc(-c3c[nH]c4ccccc34)n2-c2ccccc2)=N/O)cc1", "b1"),
    ("Cc1ccc(C(=O)NCCCNc2nc(Nc3ccc(N4CCN(C)CC4)cc3)nc3ccsc23)cc1", "b2"),
    ("COc1cc2c(c(OC)c1OC)C(=O)CC(c1cccc(NC(=O)c3cccc(N)c3)c1)O2 (stereo not drawn)", "b2"),
    ("O=C(c1ccc(O)cc1)C1[C@H](c2ccccc2Br)[C@@H](c2ccccc2)NC12C(=O)Nc1ccc(Cl)cc12 (stereo partly drawn)", "b0"),
    ("O=c1c2ccccc2nc(COc2ccccc2)n1/N=C/c1ccc(N2CCCC2)cc1", "b2"),
    ("COc1ccc(OC)c(-c2cc(-c3c[nH]c4ccccc34)nc(N)c2C#N)c1", "b1"),
    ("O=C(c1ccc(Cl)cc1)C1[C@H](c2ccccc2Br)[C@@H](c2ccccc2)NC12C(=O)Nc1ccccc12 (stereo partly drawn)", "b1"),
    ("CCCCSc1nc(Nc2ccc(/C(C)=N/NC(N)=S)cc2)c(C#N)c(-c2ccccc2)n1", "b0"),
    ("CCOC(=O)C1NN(c2ccc(S(N)(=O)=O)cc2)c2nc3nc(-c4cccs4)cc(-c4cccs4)c3c(=O)n21 (stereo not drawn)", "b0"),
    ("O=C1Nc2ccc(Cl)cc2/C1=C/c1ccc(OCc2ccccn2)cc1", "b0"),
    ("Cc1cc(C)nc(NS(=O)(=O)c2ccc(N/C(N)=N/c3nccc(-c4ccccc4)n3)cc2)n1", "b1"),
    ("CCCCSc1nc(Nc2ccc(/C(C)=N/NC(N)=S)cc2)c(C#N)c(-c2ccc(OC)cc2)n1", "b0"),
    ("O=C1Nc2cc(Cl)ccc2/C1=C/c1cccc(OCc2ccc(Br)cc2F)c1", "b1"),
    ("COc1ccc(NC(=O)Nc2ccc(OCC(=O)N=Nc3c(O)[nH]c4ccc([N+](=O)[O-])cc34)cc2)cc1", "b2"),
    ("Nc1nc(Nc2ccc(Cl)cc2)n(Cc2cccc(Br)c2)n1", "b0"),
    ("CCCn1c(=O)c2[nH]c(-c3ccc(OCc4nc5ccc(C#N)cc5[nH]4)cc3)nc2n(CCC)c1=O", "b1"),
    ("Cc1noc2c(Cc3ccc([N+](=O)[O-])cc3)nn(CC(=O)N/N=C/c3ccc(Cl)cc3)c(=O)c12", "b0"),
    ("Nc1nc2c(F)c(F)c(F)c(F)c2s1", "b2"),
    ("C=CC(=O)Nc1nc(-c2cccc(NS(=O)(=O)c3cccc4c(N(C)C)cccc34)c2)cs1", "b0"),
    ("COc1cc2c3c(n(CCCNC(C)C)c(=O)c2cc1OC)-c1nc2c(cc1C3=O)OCO2", "b0"),
    ("Oc1ccc(/C=C2\\CCCc3cc4ccc(O)cc4[o+]c32)c(O)c1", "b2"),
    ("CC1=C(c2cc(-c3ccc(Cl)cc3)c(C#N)c(N)n2)C(c2ccccc2)NC(=S)N1 (stereo not drawn)", "b2"),
    ("Brc1ccc(N/N=C/c2c[nH]c3ccccc23)nc1", "b1"),
    ("COc1ccc(-c2nc(-c3ccccc3)c(-c3ccccc3)n2-c2ccc(S(=O)(=O)Nc3ncccn3)cc2)cc1OC", "b2"),
    ("O=C(CN1CCN(c2ncnc3c2cnn3-c2ccccc2)CC1)Nc1nncs1", "b1"),
    ("OCc1[nH]nc2cc(Nc3ncc4ccc(Br)c(OC5CCC(O)CC5)c4n3)ccc12 (stereo not drawn)", "b0"),
    ("CCCCCCCCCCCCCCCCCCCC(=O)NCCc1c[nH]c2ccc(O)cc12", "b2"),
    ("COc1ccc2[nH]cc(/C=N/Nc3cccc(Cl)n3)c2c1", "b1"),
    ("O=C1NC(=NC23CC4CC(CC(C4)C2)C3)N/C1=C\\c1ccc2ncoc2c1", "b1"),
    ("O=[N+]([O-])c1ccc(-c2nc(-c3ccccc3)c(-c3ccccc3)n2-c2ccc(S(=O)(=O)Nc3ncccn3)cc2)cc1", "b1"),
    ("CCCn1c(=O)c2[nH]c(-c3ccc(OCc4nc5ccc(F)cc5[nH]4)cc3)nc2n(CCC)c1=O", "b0"),
    ("CCN1CCN(c2ccc(NC(=O)Nc3ccc(-c4cc(C(=O)NC(C)C)c5ncccc5n4)cc3)cc2C(F)(F)F)CC1", "b0"),
]
